These data points were gathered from the supplement of paper PMC10724198.

- Test system: Saccharomyces cerevisiae;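 note: PSI is a weighted mean of sequencing reads over stability bins, variants kept only with over 10 reads, mCherry proximal and sfGFP distal, peptide attached via GGGS linker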
- experiment: protein stability index of tFT-peptide fusion (C-terminal peptide) (PSI (0-1 scale)); higher = more stable (slower turnover)
- cond: genetic background: wild type; temperature: 30 C
Each record here notes measured protein stability index.
reported endpoint: protein stability index

{"query sequence": "MGIKSCSSTCVT", "reported endpoint": "protein stability index", "recorded value": 0.857}
{"query sequence": "PPPPPSPRALLP", "reported endpoint": "protein stability index", "recorded value": 0.657}
{"query sequence": "FMVVKWSPCAWC", "reported endpoint": "protein stability index", "recorded value": 0.539}
{"query sequence": "FQFTLWRTLLCS", "reported endpoint": "protein stability index", "recorded value": 0.189}
{"query sequence": "SFFFRSYCFPAP", "reported endpoint": "protein stability index", "recorded value": 0.717}
{"query sequence": "NRAVTRKRKEEK", "reported endpoint": "protein stability index", "recorded value": 0.664}
{"query sequence": "EQKVRSPIEMML", "reported endpoint": "protein stability index", "recorded value": 0.591}
{"query sequence": "PPPPPPLSPPSP", "reported endpoint": "protein stability index", "recorded value": 0.659}
{"query sequence": "TYQNAKAEPTRV", "reported endpoint": "protein stability index", "recorded value": 0.671}
{"query sequence": "GLPPPSPPVPLL", "reported endpoint": "protein stability index", "recorded value": 0.683}
